tested target: SCRIB_2, Q14160
Sequence (Q14160 857-960): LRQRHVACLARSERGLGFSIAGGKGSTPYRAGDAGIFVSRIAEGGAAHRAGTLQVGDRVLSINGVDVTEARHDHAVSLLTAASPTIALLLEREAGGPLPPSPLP
protocol text: holdup assay
Parameters: key: below the threshold = too weak to quantify, mostly under pKd 3.1 to 4
test settings: plain residues with an end cap or a label only (N-terminal biotin on a linker: ado-ado)
measured property: pKd

The following binders have reported results that may help.
Return reported pKd; argument: PRAEAEDSFL [PDGFRB, P09619]
below the threshold

Return reported pKd; argument: EVEEFPETSV [TRPV3, Q8NET8]
4.94

Return reported pKd; argument: PKRSFIESNV [TANC1, Q9C0D5]
4.88

Return reported pKd; argument: VDSTVKVWTC [TRAF7, Q6Q0C0]
below the threshold

Return reported pKd; argument: DDEDRLVIEI [ZNF831, Q5JPB2]
below the threshold

Return reported pKd; argument: FNSYSLTGYV [CLDN2, P57739]
below the threshold

Return reported pKd; argument: NHSSSPETTA [TRMT13, Q9NUP7]
below the threshold

In the following, a different binder is considered.
Return reported pKd; argument: LRSPRTPSEV [OR10G3, Q8NGC4]
3.6
